# MEASURED ON: α-amylase (AA) type VI-B from porcine pancreas (Sus scrofa)
# Sequence (P00690 16-511): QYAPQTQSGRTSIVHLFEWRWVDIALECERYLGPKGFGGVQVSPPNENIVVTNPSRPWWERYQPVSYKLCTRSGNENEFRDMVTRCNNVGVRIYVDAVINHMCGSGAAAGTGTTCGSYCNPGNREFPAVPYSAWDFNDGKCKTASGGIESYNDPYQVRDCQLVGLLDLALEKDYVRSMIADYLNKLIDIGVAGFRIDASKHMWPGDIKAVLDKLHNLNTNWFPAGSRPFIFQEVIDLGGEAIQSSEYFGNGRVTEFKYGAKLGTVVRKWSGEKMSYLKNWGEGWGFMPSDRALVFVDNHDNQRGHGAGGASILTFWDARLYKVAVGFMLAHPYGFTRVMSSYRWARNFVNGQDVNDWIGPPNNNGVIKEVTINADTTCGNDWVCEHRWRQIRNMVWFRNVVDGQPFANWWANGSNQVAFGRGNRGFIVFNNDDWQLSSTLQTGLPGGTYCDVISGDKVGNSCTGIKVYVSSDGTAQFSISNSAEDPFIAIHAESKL
# EXPERIMENT: AA inhibition assay

MOLECULE	inhibitory activity on AA (in words)
CC1(C)CCc2c(cc3oc4cc(O)c5c(c4c(=O)c3c2O)CCC(C)(C)O5)O1 [Compound 8, BR-xanthone A]	completely lost
COc1c(O)cc2oc3cc4c(c(O)c3c(=O)c2c1CC=C(C)C)CCC(C)(C)O4 [Compound 7, 3-isomangostin]	completely lost
COc1c(O)cc2oc3cc4c(c(O)c3c(=O)c2c1CC=C(C)C)C=CC(C)(C)O4 [Compound 1, 9-hydroxycalabaxanthone]	completely lost
